assay: Cytotoxicity against human HL-60 cells assessed as reduction in cell viability measured after 24 hrs by resazurin dye based assay; type: toxicity; settings: HL-60 cells
propertyLabel: GI50 at 24 h (µM)
Quick reminder: number only, in µM, skip the unit.

Task: Return reported GI50 at 24 h; argument: `CO[C@H]([C@H](C)[C@H]1O[C@@]2(CC[C@@](C)([C@H]3CC[C@@](CO)([C@@H]4O[C@@H]([C@H]5O[C@@](O)(COC(=O)c6ccccc6)[C@H](C)C[C@@H]5C)C[C@@H]4C)O3)O2)C[C@H](O)[C@H]1C)[C@H](C)C(=O)O`
Result: 18.3

----------
assay: Cytotoxicity against human HL-60 cells assessed as reduction in cell viability measured after 24 hrs by resazurin dye based assay; format: toxicity; conditions: HL-60 cells
Measured GI50 at 24 h, listed per entry for reference.
Express it in µM; write the number only.

1. CO[C@H]([C@H](C)[C@H]1O[C@@]2(CC[C@@](C)([C@H]3CC[C@@](CO)([C@@H]4O[C@@H]([C@H]5O[C@@](O)(COC(=O)NCCCl)[C@H](C)C[C@@H]5C)C[C@@H]4C)O3)O2)C[C@H](O)[C@H]1C)[C@H](C)C(=O)O; 22.4
2. CO[C@H]([C@H](C)[C@H]1O[C@@]2(CC[C@@](C)([C@H]3CC[C@@](CO)([C@@H]4O[C@@H]([C@H]5O[C@@](O)(COC(=O)Nc6ccccc6)[C@H](C)C[C@@H]5C)C[C@@H]4C)O3)O2)C[C@H](O)[C@H]1C)[C@H](C)C(=O)O; 8.94
3. CO[C@H]([C@H](C)[C@H]1O[C@@]2(CC[C@@](C)([C@H]3CC[C@@](CO)([C@@H]4O[C@@H]([C@H]5O[C@@](O)(COC(=O)NCc6ccccc6)[C@H](C)C[C@@H]5C)C[C@@H]4C)O3)O2)C[C@H](O)[C@H]1C)[C@H](C)C(=O)O; 19.5

Shifting focus to the molecule that follows.
Task: What GI50 at 24 h value was documented for this molecule, `CO[C@H]([C@H](C)[C@H]1O[C@@]2(CC[C@@](C)([C@H]3CC[C@@](CO)([C@@H]4O[C@@H]([C@H]5O[C@@](O)(COC(=O)NCCCCl)[C@H](C)C[C@@H]5C)C[C@@H]4C)O3)O2)C[C@H](O)[C@H]1C)[C@H](C)C(=O)O` ?
Result: 18.1

----------
test system: Staphylococcus aureus; experiment: Antibacterial activity against Staphylococcus aureus ATCC 6538; assay type: functional
propertyLabel: MIC
# output: numeric value plus its unit

Consider the worked cases shown below.
1) CO[C@H]([C@H](C)[C@H]1O[C@@]2(CC[C@@](C)([C@H]3CC[C@@](CO)([C@@H]4O[C@@H]([C@H]5O[C@@](O)(COC(=O)NCCCl)[C@H](C)C[C@@H]5C)C[C@@H]4C)O3)O2)C[C@H](O)[C@H]1C)[C@H](C)C(=O)O; 4 µg/mL
2) CCCNC(=O)OC[C@]1(O)O[C@H]([C@H]2C[C@H](C)[C@H]([C@]3(CO)CC[C@H]([C@]4(C)CC[C@]5(C[C@H](O)[C@@H](C)[C@@H]([C@@H](C)[C@@H](OC)[C@H](C)C(=O)O)O5)O4)O3)O2)[C@@H](C)C[C@H]1C; 2 µg/mL
3) CO[C@H]([C@H](C)[C@H]1O[C@@]2(CC[C@@](C)([C@H]3CC[C@@](CO)([C@@H]4O[C@@H]([C@H]5O[C@@](O)(COC(=O)Nc6ccccc6)[C@H](C)C[C@@H]5C)C[C@@H]4C)O3)O2)C[C@H](O)[C@H]1C)[C@H](C)C(=O)O; 0.25 µg/mL

Task: Reported MIC, compound `CCNC(=O)OC[C@]1(O)O[C@H]([C@H]2C[C@H](C)[C@H]([C@]3(CO)CC[C@H]([C@]4(C)CC[C@]5(C[C@H](O)[C@@H](C)[C@@H]([C@@H](C)[C@@H](OC)[C@H](C)C(=O)O)O5)O4)O3)O2)[C@@H](C)C[C@H]1C` : ____
Result: 8 µg/mL

----------
Each item that follows carries a reported MIC.
tested on: Staphylococcus epidermidis; assay: Antibacterial activity against Staphylococcus epidermidis 840/19; format: functional
Number in µg/mL, nothing else.

Look over these answered cases.
1) CCCCNC(=O)OC[C@]1(O)O[C@H]([C@H]2C[C@H](C)[C@H]([C@]3(CO)CC[C@H]([C@]4(C)CC[C@]5(C[C@H](O)[C@@H](C)[C@@H]([C@@H](C)[C@@H](OC)[C@H](C)C(=O)O)O5)O4)O3)O2)[C@@H](C)C[C@H]1C; 2
2) CO[C@H]([C@H](C)[C@H]1O[C@@]2(CC[C@@](C)([C@H]3CC[C@@](CO)([C@@H]4O[C@@H]([C@H]5O[C@@](O)(COC(=O)NC(=O)CCl)[C@H](C)C[C@@H]5C)C[C@@H]4C)O3)O2)C[C@H](O)[C@H]1C)[C@H](C)C(=O)O; 16

Turning to the following compound.
Task: MIC for `CCCNC(=O)OC[C@]1(O)O[C@H]([C@H]2C[C@H](C)[C@H]([C@]3(CO)CC[C@H]([C@]4(C)CC[C@]5(C[C@H](O)[C@@H](C)[C@@H]([C@@H](C)[C@@H](OC)[C@H](C)C(=O)O)O5)O4)O3)O2)[C@@H](C)C[C@H]1C` ?
Result: 4

----------
tested on: Staphylococcus epidermidis; experiment: Antibacterial activity against Staphylococcus epidermidis 829/19; format: functional
propertyLabel: MIC (µg/mL)
Provide the reading as a plain figure in µg/mL.

1) CO[C@H]([C@H](C)[C@H]1O[C@@]2(CC[C@@](C)([C@H]3CC[C@@](CO)([C@@H]4O[C@@H]([C@H]5O[C@@](O)(COC(=O)NC(=O)CCl)[C@H](C)C[C@@H]5C)C[C@@H]4C)O3)O2)C[C@H](O)[C@H]1C)[C@H](C)C(=O)O; 16

For the next question, use this compound.
Task: # query: MIC of entry `CO[C@H]([C@H](C)[C@H]1O[C@@]2(CC[C@@](C)([C@H]3CC[C@@](CO)([C@@H]4O[C@@H]([C@H]5O[C@@](O)(COC(=O)c6ccccc6)[C@H](C)C[C@@H]5C)C[C@@H]4C)O3)O2)C[C@H](O)[C@H]1C)[C@H](C)C(=O)O`
Result: 2

----------
Entries annotated with measured GI50 at 24 h
test: Cytotoxicity against human HL-60 cells assessed as reduction in cell viability measured after 24 hrs by resazurin dye based assay; format: toxicity; conditions: HL-60 cells

1. CO[C@H]([C@H](C)[C@H]1O[C@@]2(CC[C@@](C)([C@H]3CC[C@@](CO)([C@@H]4O[C@@H]([C@H]5O[C@@](O)(COC(=O)NC(=O)CCl)[C@H](C)C[C@@H]5C)C[C@@H]4C)O3)O2)C[C@H](O)[C@H]1C)[C@H](C)C(=O)O; 3.51 µM

Shifting focus to the molecule that follows.
Task: What does the data say about its GI50 at 24 h? Entry: `CCCNC(=O)OC[C@]1(O)O[C@H]([C@H]2C[C@H](C)[C@H]([C@]3(CO)CC[C@H]([C@]4(C)CC[C@]5(C[C@H](O)[C@@H](C)[C@@H]([C@@H](C)[C@@H](OC)[C@H](C)C(=O)O)O5)O4)O3)O2)[C@@H](C)C[C@H]1C`
Result: 24.5 µM

----------
test system: Staphylococcus aureus; experiment: Antibacterial activity against Staphylococcus aureus ATCC 6538; format: functional
Parameter MIC: see the listing below.
Write the value in µg/mL as a bare number.

// known answers, use as guide
1) CO[C@H]([C@H](C)[C@H]1O[C@@]2(CC[C@@](C)([C@H]3CC[C@@](CO)([C@@H]4O[C@@H]([C@H]5O[C@@](O)(COC(=O)NCCCCl)[C@H](C)C[C@@H]5C)C[C@@H]4C)O3)O2)C[C@H](O)[C@H]1C)[C@H](C)C(=O)O; 2
2) CO[C@H]([C@H](C)[C@H]1O[C@@]2(CC[C@@](C)([C@H]3CC[C@@](CO)([C@@H]4O[C@@H]([C@H]5O[C@@](O)(COC(=O)NC(=O)CCl)[C@H](C)C[C@@H]5C)C[C@@H]4C)O3)O2)C[C@H](O)[C@H]1C)[C@H](C)C(=O)O; 2

Task: Can you look up MIC on Staphylococcus aureus for `CO[C@H]([C@H](C)[C@H]1O[C@@]2(CC[C@@](C)([C@H]3CC[C@@](CO)([C@@H]4O[C@@H]([C@H]5O[C@@](O)(COC(=O)NCc6ccccc6)[C@H](C)C[C@@H]5C)C[C@@H]4C)O3)O2)C[C@H](O)[C@H]1C)[C@H](C)C(=O)O` ?
Result: 1

----------
Listed here: items and their measured MIC.
test system: Staphylococcus aureus; assay: Antibacterial activity against Staphylococcus aureus ATCC 6538; format: functional
Please state the figure in µg/mL; there is no need to write the unit.

1) CO[C@H]([C@H](C)[C@H]1O[C@@]2(CC[C@@](C)([C@H]3CC[C@@](CO)([C@@H]4O[C@@H]([C@H]5O[C@@](O)(COC(C)=O)[C@H](C)C[C@@H]5C)C[C@@H]4C)O3)O2)C[C@H](O)[C@H]1C)[C@H](C)C(=O)O; 2
2) CCCCCCCCCC(=O)OC[C@]1(O)O[C@H]([C@H]2C[C@H](C)[C@H]([C@]3(CO)CC[C@H]([C@]4(C)CC[C@]5(C[C@H](O)[C@@H](C)[C@@H]([C@@H](C)[C@@H](OC)[C@H](C)C(=O)O)O5)O4)O3)O2)[C@@H](C)C[C@H]1C; 2

Task: I'd like to know its MIC. The compound in question is `CCCCNC(=O)OC[C@]1(O)O[C@H]([C@H]2C[C@H](C)[C@H]([C@]3(CO)CC[C@H]([C@]4(C)CC[C@]5(C[C@H](O)[C@@H](C)[C@@H]([C@@H](C)[C@@H](OC)[C@H](C)C(=O)O)O5)O4)O3)O2)[C@@H](C)C[C@H]1C`
Result: 1

Task: Try `CO[C@H]([C@H](C)[C@H]1O[C@@]2(CC[C@@](C)([C@H]3CC[C@@](CO)([C@@H]4O[C@@H]([C@H]5O[C@@](O)(COC(=O)c6ccccc6)[C@H](C)C[C@@H]5C)C[C@@H]4C)O3)O2)C[C@H](O)[C@H]1C)[C@H](C)C(=O)O` next.
Result: 1
